Target: BRM (Homo sapiens, UniProt P51531)
Construct: made in house; host or cells: High Five insect cells
Sequence (P51531 whole entry): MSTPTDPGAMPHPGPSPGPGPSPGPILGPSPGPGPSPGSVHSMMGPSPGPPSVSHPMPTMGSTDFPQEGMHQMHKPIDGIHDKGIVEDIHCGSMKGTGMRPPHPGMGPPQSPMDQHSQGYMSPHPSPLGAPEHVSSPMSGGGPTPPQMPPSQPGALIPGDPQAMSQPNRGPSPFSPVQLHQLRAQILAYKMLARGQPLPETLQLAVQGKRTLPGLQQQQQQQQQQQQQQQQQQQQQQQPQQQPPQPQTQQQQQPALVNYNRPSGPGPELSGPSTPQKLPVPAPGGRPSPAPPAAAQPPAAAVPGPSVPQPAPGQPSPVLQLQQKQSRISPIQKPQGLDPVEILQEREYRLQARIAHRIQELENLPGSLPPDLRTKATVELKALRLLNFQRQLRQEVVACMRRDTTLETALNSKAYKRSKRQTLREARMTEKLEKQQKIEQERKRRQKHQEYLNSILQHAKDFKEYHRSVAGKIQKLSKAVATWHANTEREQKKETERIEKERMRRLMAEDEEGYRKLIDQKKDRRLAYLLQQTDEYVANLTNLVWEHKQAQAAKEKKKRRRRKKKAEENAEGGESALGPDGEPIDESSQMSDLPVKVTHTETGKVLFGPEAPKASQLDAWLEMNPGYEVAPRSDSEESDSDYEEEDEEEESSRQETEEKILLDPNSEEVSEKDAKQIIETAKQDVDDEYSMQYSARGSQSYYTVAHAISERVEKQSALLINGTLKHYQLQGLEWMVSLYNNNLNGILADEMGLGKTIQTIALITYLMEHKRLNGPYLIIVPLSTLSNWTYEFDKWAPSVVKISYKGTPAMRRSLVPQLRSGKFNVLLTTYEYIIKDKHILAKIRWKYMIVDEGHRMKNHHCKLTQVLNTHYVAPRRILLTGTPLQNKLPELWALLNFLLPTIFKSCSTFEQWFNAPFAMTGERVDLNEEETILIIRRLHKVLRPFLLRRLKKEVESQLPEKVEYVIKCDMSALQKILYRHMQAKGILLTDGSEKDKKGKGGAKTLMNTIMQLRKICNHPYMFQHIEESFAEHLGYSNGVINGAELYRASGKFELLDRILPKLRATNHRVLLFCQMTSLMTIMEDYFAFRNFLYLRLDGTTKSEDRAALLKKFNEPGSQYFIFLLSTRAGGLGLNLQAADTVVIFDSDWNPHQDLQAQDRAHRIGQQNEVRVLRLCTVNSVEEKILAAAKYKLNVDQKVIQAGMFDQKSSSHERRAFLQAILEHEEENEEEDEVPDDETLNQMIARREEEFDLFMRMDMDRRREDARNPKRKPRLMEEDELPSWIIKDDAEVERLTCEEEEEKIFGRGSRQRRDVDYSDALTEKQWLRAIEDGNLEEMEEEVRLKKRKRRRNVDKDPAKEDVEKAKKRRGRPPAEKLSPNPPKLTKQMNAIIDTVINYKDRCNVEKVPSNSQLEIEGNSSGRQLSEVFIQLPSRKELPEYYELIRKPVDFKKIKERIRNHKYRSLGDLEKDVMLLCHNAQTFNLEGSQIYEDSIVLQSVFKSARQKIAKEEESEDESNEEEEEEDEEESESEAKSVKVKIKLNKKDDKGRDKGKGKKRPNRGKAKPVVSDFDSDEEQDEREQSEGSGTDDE
Experiment: ATPase catalytic activity of BRM, ADP-Glo in vitro biochemical assay
Conditions: ratio of BRG1 IC50 to BRM IC50
Experimental: The ATPase catalytic activity of BRM or BRG-1 was measured by an in vitro biochemical assay using ADP-Glo™ (Promega, V9102). The ADP-Glo™ kinase assay is performed in two steps once the reaction is complete. The first step is to deplete any unconsumed ATP in the reaction. The second step is to convert the reaction product ADP to ATP, which will be utilized by the luciferase to generate luminesce and be detected by a luminescence reader, such as Envision. […]
Assay endpoint: Ratio*

{"Molecule": "C[C@@H]1CN(c2cccc(-c3ccc4cnc(CNC(=O)c5ccc(COC6CC6)c(S(C)(=O)=O)c5)cc4n3)n2)C[C@H](C)O1 [Compound 578]", "Ratio*": 19.00}

I = Cc1ccc2c(n1)N(c1ccc3cnc(CNC(=O)c4ccc5c(c4)S(=O)(=O)CCOC5)cc3n1)CCO2 [Compound 557]
II = C[C@@H]1CCc2ccc(-c3ccc4cnc(CNC(=O)c5ccc6c(c5)S(=O)(=O)CCOC6)cc4n3)nc2N1C [Compound 467]
Problem: Between I and II , whose measured Ratio* reads higher? # respond with the chosen item's label
Result: I

====

molecular target: BRM (Homo sapiens, UniProt P51531); construct: made in house; host or cells: High Five insect cells; assay: ATPase catalytic activity of BRM, ADP-Glo in vitro biochemical assay; settings: ratio BRG1 IC50 / BRM IC50
Assay endpoint: Ratio*

{"Compound": "COc1ccc(-c2ccc3cnc(CNC(=O)c4ccc5c(c4)S(=O)(=O)CCOC5)cc3n2)nc1", "Ratio*": 6.87}
{"Compound": "COCc1cc2c(cn1)N(c1ccc3cnc(CNC(=O)c4ccc5c(c4)S(=O)(=O)CCOC5)cc3n1)CCC2", "Ratio*": 12.03}
{"Compound": "O=C(NCc1cc2nc(-c3ccc(OC4CC4)cn3)ccc2cn1)c1ccc2c(c1)S(=O)(=O)CCOC2", "Ratio*": 3.64}
{"Compound": "COc1ncc2c(c1F)N(c1ccc3cnc(CNC(=O)c4ccc5c(c4)S(=O)(=O)CCOC5)cc3n1)CCC2", "Ratio*": 14.27}
{"Compound": "COc1cnc2c(c1)CCN2c1ccc2cnc(CNC(=O)c3ccc4c(c3)S(=O)(=O)CCOC4)cc2n1", "Ratio*": 8.10}

A = O=C(NCc1cc2nc(N3CC4CC4c4cccnc43)ccc2cn1)c1ccc2c(c1)S(=O)(=O)CCOC2 (centres unmarked)
B = C[C@@H]1CN(c2cccc(-c3ccc4cnc(CNC(=O)c5ccc6c(c5)S(=O)(=O)CCC(F)C6)cc4n3)n2)C[C@H](C)O1 (some centres unmarked)
Problem: Input pair: A , B . Output: entry with lower Ratio*. # respond with the chosen item's label
Result: B

====

biological target: BRM (Homo sapiens); construct: made in house; host or cells: High Five insect cells; assay: ATPase catalytic activity of BRM, ADP-Glo in vitro biochemical assay; conditions: ADP-Glo ATPase assay, 30 nM BRM, 400 μM ATP
pIC50: −log10 of the molar value.
Assay endpoint: pIC50

{"Molecule": "Cc1cc2c(-c3ccc4cnc(CNC(=O)c5ccc6c(c5)S(=O)(=O)CCOC6)cc4n3)cccc2n1C [Compound 130]", "Numeric result": 7.97}

I = O=C(NCc1cc2nc(N3CCCc4cc(F)c(OCC5COC5)cc43)ccc2cn1)c1ccc2c(c1)S(=O)(=O)CCOC2 [Compound 726]
II = CN(C)c1nccc2c1CCCN2c1ccc2cnc(CNC(=O)c3ccc4c(c3)S(=O)(=O)CCOC4)cc2n1 [Compound 836]
III = [2H]C1([2H])Oc2ccc(C(=O)NCc3cc4nc(N5CCOc6ccc(C(F)F)nc65)ccc4cn3)cc2S(=O)(=O)C([2H])([2H])C1([2H])[2H] [Compound 818]
Problem: Put the items in sequence by pIC50, from largest down. Give the labels in the order requested.
Result: I, III, II
